# method-description: physchem
# conditions-used: buffer, pH 7.4
measured-parameter: solubility kinetic at 1 h (µM)

Check out these entries, answers already filled in.
>  <sample-smiles>
CC(=O)N1CCC(Oc2cccc3cnc(Nc4cnn(C)c4)nc23)CC1

>  <solubility kinetic at 1 h / µM>
557

$$$$
>  <sample-smiles>
Cn1cc(Nc2ncc3cccc(OC4CCNCC4)c3n2)cn1

>  <solubility kinetic at 1 h / µM>
523

$$$$
>  <sample-smiles>
COc1cccc2cnc(Nc3cnn(C)c3)nc12

>  <solubility kinetic at 1 h / µM>
539

$$$$

A. CC(=O)N1CCC(Nc2cccc3cnc(Nc4cnn(C)c4)nc23)CC1
B. COc1cc(-c2ccc(O)cc2)cc2cnc(Nc3cnn(C)c3)nc12
IN: A or B : whose solubility kinetic at 1 h is greater? Lab log: write the label of the selected item as the result.
OUT: A

###

# method-description: physchem
# conditions-used: buffer, pH 6.5
# Description: Solubility of the compound in stimulated lung fluid at pH 6.5 measured after 4 hrs by HPLC-UV analysis
measured-parameter: solubility at 4 h (µg/mL)
Numbers only; they are read as µg/mL.

IN: Need solubility at 4 h of CCc1cc(O)c(F)cc1-c1cc(NCCO)c2nc(N)ncc2c1 , thanks.
OUT: 44

###

# method-description: in vitro
# conditions-used: PAMPA, pH 7.4
# Description: Permeability of the compound at pH 7.4 incubated for 3 hrs by HPLC based artificial membrane permeability assay
measured-parameter: Papp at 3 h (×10⁻⁶ cm/s)

1. CCc1cc(O)c(F)cc1-c1cc(NCCO)c2nc(N)ncc2c1
2. CCc1cc(O)c(F)cc1-c1cc(NCCNC)c2nc(N)ncc2c1
IN: Among 1 and 2 , whose measured Papp at 3 h is the smaller figure? Lab log: write the label of the selected item as the result.
OUT: 2
(2: 1.2 ×10⁻⁶ cm/s, 1: 12 ×10⁻⁶ cm/s)

###

As a worked illustration, we turn to IC50 data collected for Non-receptor tyrosine-protein kinase TYK2 (Homo sapiens).
measured-parameter: IC50 (nM)

I. CC(=O)N1CCC(Oc2cccc3cnc(Nc4cnn(C)c4)nc23)CC1
II. COc1cccc2cnc(Nc3cnn(C)c3)nc12
IN: I or II : whose IC50 is greater? Lab log: write the label of the selected item as the result.
OUT: II
(II: 631 nM, I: 316 nM)
